Counter-ions that a name gives are not always drawn.
Dear all, this message contains pIC50 results, target or system human β-Secretase (Homo sapiens, UniProt P56817).
Kindly note that pIC50 refers to -log10 of the concentration in mol/L and answer with the value alone.

Request: What reported pIC50 corresponds to COc1cc(OS(C)(=O)=O)cc(-c2cccc(C3(c4ccc(OC)c(C)c4)N=C(N)c4ccccc43)c2)c1 (stereo not shown) [Example 25, trifluoroacetate] on human β-Secretase (Homo sapiens, UniProt P56817)?
Result: 7.07

Request: What reported pIC50 corresponds to NC1=NC(c2ccncc2)(c2cccc(-c3cccnc3F)c2)c2cc(F)ccc21 (stereo not shown) [Example 86] on human β-Secretase (Homo sapiens, UniProt P56817)?
Result: 7.33

Request: What reported pIC50 corresponds to NC1=NC(c2ccncc2)(c2cccc(-c3cccnc3)c2)c2ccccc21 (stereo not shown) [Example 44, trifluoroacetate] on human β-Secretase (Homo sapiens, UniProt P56817)?
Result: 6.67

Request: What reported pIC50 corresponds to COc1ccc(C2(c3cccc(-c4cccc(OC)c4)c3)N=C(N)c3ccc(F)cc32)cc1 (stereo not shown) [Example 80] on human β-Secretase (Homo sapiens, UniProt P56817)?
Result: 7.08

----------
Dear all, this message contains IC50 results, target or system human β-Secretase (Homo sapiens, UniProt P56817).
Counter-ions that a name gives are not always drawn.
Give your result in nM as a bare value.

Request: Which IC50 is reported for this compound? COc1ccc(C2(c3cccc(-c4ccc(C)o4)c3)N=C(N)c3ccccc32)cc1 (stereo not shown) [Example 54]
Result: 1000

Request: Which IC50 is reported for this compound? CC1(c2cccc(-c3cc(Cl)cc(Cl)c3)c2)N=C(N)c2ccccc21 (stereo not shown) [Example 94, hydrochloride]
Result: 880

Request: Which IC50 is reported for this compound? CC(C)c1cc(C2(c3cccc(-c4cncnc4)c3)N=C(N)c3ccccc32)ccn1 (stereo not shown) [Example 114]
Result: 300

Request: Which IC50 is reported for this compound? COc1ccc(C2(c3cccc(-c4cccnc4)c3)N=C(N)c3ccccc32)cc1 (stereo not shown) [Example 9, trifluoroacetate]
Result: 154

----------
Assign pIC50 to each entry below.
Counter-ions that a name gives are not always drawn.
Kindly note that pIC50 refers to -log10 of the concentration in mol/L and answer with the value alone.

Request: What reported pIC50 corresponds to NC1=NC(c2ccc(OC(F)(F)F)cc2)(c2cccc(-c3cncnc3)c2)c2ccccc21 (stereo not shown) on UniProtKB P56817?
Result: 6.74

Request: What reported pIC50 corresponds to NC1=NC(c2ccncc2)(c2cccc(-c3cccnc3F)c2)c2ccccc21 (stereo not shown) [Example 42, trifluoroacetate] on UniProtKB P56817?
Result: 6.96

Request: What reported pIC50 corresponds to N#Cc1cncc(-c2cccc(C3(c4ccncc4)N=C(N)c4ccccc43)c2)c1 (stereo not shown) [Example 77, acetate] on UniProtKB P56817?
Result: 6.82

Request: What reported pIC50 corresponds to COc1cccc(-c2cccc(C3(c4ccc5c(c4)OCO5)N=C(N)c4ccccc43)c2)c1 (stereo not shown) [Example 33, trifluoroacetate] on UniProtKB P56817?
Result: 5.88

Request: What reported pIC50 corresponds to CC1(c2cccc(-c3cncnc3)c2)N=C(N)c2ccccc21 (stereo not shown) [Example 95, acetate] on UniProtKB P56817?
Result: 5.70

Request: What reported pIC50 corresponds to COc1ccc(C2(c3cccc(Br)c3)N=C(N)c3ccccc32)cc1C (stereo not shown) [Example 19, trifluoroacetate] on UniProtKB P56817?
Result: 5.87

Request: What reported pIC50 corresponds to COc1ccc(C2(c3ccc(OS(=O)(=O)C(F)(F)F)c(-c4cccc(OC)c4)c3)N=C(N)c3ccccc32)cc1 (stereo not shown) [Example 3, trifluoroacetate] on UniProtKB P56817?
Result: 4.92

----------
Where a name gives a salt, the structure may show the parent alone.
Dear all, this message contains log10 of IC50 results, target or system human β-Secretase (Homo sapiens, UniProt P56817).
Note: values are log10 of IC50 expressed in nM.

Request: Which log10 of IC50 is reported for this compound? CS(=O)(=O)Oc1ccc(C2(c3cccc(-c4cccnc4F)c3)N=C(N)c3ccccc32)cc1 (centres unmarked) [Example 37, trifluoroacetate]
Result: 2.76

Request: Which log10 of IC50 is reported for this compound? NC1=NC(c2ccc(O)cc2)(c2ccc(O)cc2)c2ccccc21 [Example 6]
Result: 3.55

Request: Which log10 of IC50 is reported for this compound? NC1=NC(c2ccc(F)c(-c3cncnc3)c2)(c2ccncc2F)c2ccccc21 (centres unmarked) [Example 74]
Result: 2.18

Request: Which log10 of IC50 is reported for this compound? NC1=NC(c2cccc(-c3cncnc3)c2)(C2CC2)c2ccccc21 (centres unmarked) [Example 92, acetate]
Result: 2.43

Request: Which log10 of IC50 is reported for this compound? COc1ccc(C2(c3cccc(-c4cccnc4F)c3)N=C(N)c3ccccc32)cc1C (centres unmarked) [Example 24, trifluoroacetate]
Result: 1.73

Request: Which log10 of IC50 is reported for this compound? COc1ccc(C#N)c(-c2cccc(C3(C)N=C(N)c4ccccc43)c2)c1 (centres unmarked) [Example 93, acetate]
Result: 3.64

Request: Which log10 of IC50 is reported for this compound? NC1=NC(c2cncc(F)c2)(c2cccc(-c3cncnc3)c2)c2ccccc21 (centres unmarked) [Example 125]
Result: 2.91

Request: Which log10 of IC50 is reported for this compound? COc1ccc(C2(c3cccc(-c4cncnc4)c3)N=C(N)c3ccccc32)cc1C (centres unmarked) [Example 23, trifluoroacetate]
Result: 1.94

----------
Dear all, this message contains IC50 results, target or system human β-Secretase (Homo sapiens, UniProt P56817).
Where a name gives a salt, the structure may show the parent alone.
Give your result in nM as a bare value.

Request: Which IC50 is reported for this compound? COc1cncc(-c2cccc(C3(c4ccncc4)N=C(N)c4ccccc43)c2)c1 (stereo not drawn) [Example 46, trifluoroacetate]
Result: 98

Request: Which IC50 is reported for this compound? COc1cc(OS(C)(=O)=O)cc(-c2cccc(C3(c4ccc(OS(C)(=O)=O)cc4)N=C(N)c4ccccc43)c2)c1 (stereo not drawn) [Example 41, trifluoroacetate]
Result: 575

Request: Which IC50 is reported for this compound? COc1ccc(C2(c3cccc(-c4cccc(OC)c4)c3)N=C(N)c3ccccc32)cc1 (stereo not drawn) [Example 2, trifluoroacetate]
Result: 110

----------
Where a name gives a salt, the structure may show the parent alone.
Assign IC50 to each entry below.
Don't forget the unit after the value.

Request: What reported IC50 corresponds to NC1=NC(c2cccc(OS(=O)(=O)c3c(F)cccc3F)c2)(c2cc(Cl)nc(Cl)c2)c2ccccc21 (stereo not drawn) on human β-Secretase (Homo sapiens)?
Result: 3240 nM

Request: What reported IC50 corresponds to COc1ccc(C2(c3ccc(F)c(-c4cncnc4)c3)N=C(N)c3ccccc32)cc1C (stereo not drawn) on human β-Secretase (Homo sapiens)?
Result: 33 nM

Request: What reported IC50 corresponds to COc1cncc(-c2cccc(C3(c4ccc5c(c4)OCCO5)N=C(N)c4ccccc43)c2)c1 (stereo not drawn) [Example 16, trifluoroacetate] on human β-Secretase (Homo sapiens)?
Result: 425 nM

Request: What reported IC50 corresponds to NC1=NC(c2cccc(-c3cccnc3)c2)(c2ccc3c(c2)OCCO3)c2ccccc21 (stereo not drawn) [Example 17, trifluoroacetate] on human β-Secretase (Homo sapiens)?
Result: 1520 nM

Request: What reported IC50 corresponds to Cc1ccc(-c2cccc(C3(c4ccncc4)N=C(N)c4ccccc43)c2)o1 (stereo not drawn) [Example 63, acetate] on human β-Secretase (Homo sapiens)?
Result: 1100 nM

Request: What reported IC50 corresponds to COc1ccc(C2(c3ccc(O)c(-c4cccc(OC)c4)c3)N=C(N)c3ccccc32)cc1 (stereo not drawn) [Example 4, trifluoroacetate] on human β-Secretase (Homo sapiens)?
Result: 67 nM

Request: What reported IC50 corresponds to COc1cc(OS(C)(=O)=O)cc(-c2cccc(C3(c4ccc5c(c4)OCO5)N=C(N)c4ccccc43)c2)c1 (stereo not drawn) [Example 34, trifluoroacetate] on human β-Secretase (Homo sapiens)?
Result: 1090 nM

Request: What reported IC50 corresponds to COc1cccc(-c2cccc(C3(c4ccc5c(c4)OCCO5)N=C(N)c4ccccc43)c2)c1 (stereo not drawn) [Example 27, trifluoroacetate] on human β-Secretase (Homo sapiens)?
Result: 1060 nM

Request: What reported IC50 corresponds to CCc1cc(C2(c3cccc(-c4cccnc4F)c3)N=C(N)c3ccccc32)ccn1 (stereo not drawn) on human β-Secretase (Homo sapiens)?
Result: 96 nM

Request: What reported IC50 corresponds to COc1cncc(-c2cccc(C3(c4ccc(OS(C)(=O)=O)cc4)N=C(N)c4ccccc43)c2)c1 (stereo not drawn) [Example 39, trifluoroacetate] on human β-Secretase (Homo sapiens)?
Result: 350 nM

Request: What reported IC50 corresponds to COc1ccc(C2(c3cccc(-c4cncc(OC)c4)c3)N=C(N)c3ccccc32)cc1 (stereo not drawn) [Example 12, trifluoroacetate] on human β-Secretase (Homo sapiens)?
Result: 68 nM

Request: What reported IC50 corresponds to COc1cccc(-c2cccc(C3(c4ccc(OS(C)(=O)=O)cc4)N=C(N)c4ccccc43)c2)c1 (stereo not drawn) on human β-Secretase (Homo sapiens)?
Result: 570 nM

Request: What reported IC50 corresponds to COc1ccc(C2(c3ccc(O)c(-c4cncnc4)c3)N=C(N)c3ccccc32)cc1 (stereo not drawn) [Example 8, trifluoroacetate] on human β-Secretase (Homo sapiens)?
Result: 40 nM

Request: What reported IC50 corresponds to COc1cncc(-c2cccc(C3(c4ccc(OC)c(C)c4)N=C(N)c4ccccc43)c2)c1 (stereo not drawn) [Example 21, trifluoroacetate] on human β-Secretase (Homo sapiens)?
Result: 42 nM

Request: What reported IC50 corresponds to CC(C)c1cc(C2(c3cccc(-c4cccnc4F)c3)N=C(N)c3ccccc32)ccn1 (stereo not drawn) on human β-Secretase (Homo sapiens)?
Result: 210 nM

Origin of the recorded values: patent US7855213B2
